Experiment: growth suppression of beta-catenin knockout HCT116, pilot screen, human colon tumor cells (AID 823);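 further: 0% = wells killed by 20 µM Hyamine and 100% = untreated DMSO cell wells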
Conditions: CellTiter-Glo, 60 h, at 10 µM, hits give low values
Results filed as inconclusive are left out.
Recorded measurements of viability, one per entry
Field format: number, assumed %, no unit text.

Example entries begin here.
{"columns": ["molecule", "viability / %"],
 "data": [
  ["CC(C)(C)c1nc(CN2CCCCC2)cc(CN2CCCCC2)c1O", 70.8],
  ["Cc1nc(SCC(=O)NCc2ccco2)c2oc3ccccc3c2n1", 95.2]
]}

Query :: Quick one: viability for Cc1cc(C)c2c(=O)[nH]n(C3CCOC(C)(C)C3)c2n1 (configuration not stated) ?
Result :: 107

Query :: I would be grateful if you could share the reported viability for Cc1cc(C)c(C#N)c(Oc2ccc(O)cc2)n1 .
Result :: 98.7

Query :: Could you tell me which viability is on file for O=c1nc(-c2ccccc2)cn[nH]1 ?
Result :: 101

Query :: Requested field: viability. Item: O=C(NCCCc1ccccc1)C1CCN(c2nnc(-n3cccc3)s2)CC1
Result :: 93.3

Query :: For c1ccc(CNc2nc3ccccc3[nH]2)cc1 , what is its reported viability?
Result :: 75.8

Query :: Form field: reported viability of c1ccc(Cn2ncc3ccccc32)cc1
Result :: 94.8

====

Experiment: growth suppression of PTEN-deleted HCT116, pilot screen, cell-based, HCT116 clonal line, CellTiter-Glo (AID 824);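 further: 0% = 20 µM Hyamine control and 100% = vehicle cell control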
Details: 60 h, at 10 µM, hits give low values
Inconclusive results are not listed.
// reported viability per item
Give just the number in %; leave the unit off.

Example entries begin here.
{"columns": ["structureString", "viability / %"],
 "data": [
  ["CC(=O)Nc1ccc(OCC=C(Cl)Cl)cc1", 102],
  ["Cc1c(Br)cc(C(=O)N2CCCC2)c(C)c1C", 98.9],
  ["O=C(NCc1ccccc1)c1ccc(/C=N/O)nc1", 106]
]}

Query :: Need viability of Cc1cccc(C(=O)N2CCN(Cc3ccc4c(c3)OCO4)CC2)c1 , thanks.
Result :: 95.7

Query :: What does the record list as viability for COc1ccc(-c2nnc3ccc(SCC(=O)N4CCCCCC4)nn23)cc1OC ?
Result :: 109

Query :: Using the record for O=C(NCCN1CCCCC1)c1ccc2c(c1)OCCO2 , report its viability.
Result :: 99

====

// viability lookup, one value per entry
Assay: growth suppression of PTEN-deleted HCT116, pilot screen, cell-based, HCT116 clonal line, CellTiter-Glo (AID 824);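 further: 0% = 20 µM Hyamine control and 100% = vehicle cell control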
Details: 60 h, at 10 µM, hits give low values
Inconclusive results are not listed.
Please respond with the number in % and leave the unit unwritten.

Some solved entries appear below for comparison.
{"columns": ["molecule", "measurementLabel", "unitAbbrev", "observedValue"],
 "data": [
  ["O=C(O)CC1C(=O)NCCN1Cc1ccc(F)c(F)c1 (stereo unspecified)", "viability", "%", 88.2],
  ["CCc1cc2c(=O)c(Oc3ccccc3F)c(C)oc2c(CN(C)C)c1O", "viability", "%", 89.1],
  ["CN1CCN(C(=O)C2CCC(CNS(=O)(=O)c3cccc4cccnc34)CC2)CC1 (stereo unspecified)", "viability", "%", 100],
  ["O=C(NCS(=O)(=O)c1ccccc1)c1ccccc1", "viability", "%", 101]
]}

Query :: Which value of viability has been reported for Cc1ccc(N2CN=c3s/c(=C\c4ccccn4)c(=O)n3C2)cc1 in the records?
Result :: 98.7

Query :: // lookup viability for Cc1cc(C)n2c(SCC(=O)Nc3ccccc3)nnc2n1
Result :: 91.4

Query :: // returns reported viability for input Brc1ccccc1Cn1c(-c2cncs2)nc2ccccc21
Result :: 73.9

Query :: viability lookup needed for COc1ccc(C2/C(=C(/O)c3ccc(F)cc3)C(=O)C(=O)N2CCCN(C)C)cc1 (stereo unspecified) , thanks.
Result :: 98.1

Query :: Value lookup for viability; key = S=c1sc2c(N3CCOCC3)ncnc2n1-c1ccccc1
Result :: 94.9

Query :: Fill blank: measured viability of the molecule COc1ccc(C2C(C(=O)Nc3ccccc3OC)=C(C)Nc3ncnn32)cc1 (stereo unspecified) is ____.
Result :: 94.4

Query :: Item Cc1ccc(OCCNC(=O)c2ccccc2N)cc1 has what recorded viability?
Result :: 97.6
